# Test system: MS2 coat protein
# assay-name: apparent KD of MS2 coat protein; higher = weaker reporter binding
# experimental-conditions: Eterna round: R107; input ligand: arginine 13.2 mM
parameter: apparent KD of MS2 coat protein

sequence-data	apparent KD of MS2 coat protein
GACGGCUCGACGGCCGCCACUCCCUCCGACUGAAGGCACAGUGGACAUGAGGAUCACCCAUGUCCGAGGACCGGGUCGAUCCUGG [theeternabot_sameState_MS2_Trp_B_32]	14.5 nM
AAUAUAUAUCACGAACUGUGGUGUAUGUUCCGAGGACCGGUACGGCCGCCACUCGCGUGGUUCCACAUGAGGAUCACCCAUGUUG [XTryp A #8]	17.3 nM

Attention now turns to another entry.
Need apparent KD of MS2 coat protein of ACAUGAGGAUCACCCAUGUGUGUAAGUCCUCGAGGACCGGUACGGCCGCCACUCGAACGAGUGUAACAUACUUGUUACAAGUAUG [SS Trp A s3] , thanks.
18.5 nM

---

# System: MS2 coat protein
# assay-name: apparent KD of MS2 coat protein; designed switch direction (-1 OFF switch, 1 ON switch): -1; higher = weaker reporter binding
# experimental-conditions: input ligand: none
Classification field: true (1) = apparent KD of MS2 coat protein at or over 30 nM; false (0) = apparent KD of MS2 coat protein under 30 nM.

Past entries and their recorded results:
sequence-data	label-class
ACUGUAGAAGGAUAUGCUUCGACUCACAUGAGGAUCACCCAUGUCUUCGUGCAGUCGUCUGCAGAAGGUCUCCAGU [EX5 C.7] (Eterna round: R97, puzzle: Exclusion 5)	true (1)
GCACGGAGUGUAGGAUAUCUGUGCGAUUAGCUCAGAGAAGGACACAUGAGGAUCACCCAUGUGUAACAACACAAUAAUCCGUGC [Eli exng1 - 072] (Eterna round: R96, puzzle: Exclusion NG 1)	false (0)
UGAAACCUAGGAUAUACAUGAGGAUCACCCAUGUAAUGUAGUAUAGUAUAUGUAAGAUGUAGAAGGAGGAAUGU [LRO-Excl05-27-Smart Aleck] (Eterna round: R97, puzzle: Exclusion 3)	true (1)
CUCCGGCGUGUAGGAUAUGGAUCCGAUUAGGAUCCAGAAGGACAUGAGGAUCACCCAUGUACAUGUAAACGGUCGUCACCGGGC [salish99_ExNG1_r04_207] (Eterna round: R96, puzzle: Exclusion NG 1)	true (1)
GUGACCAUAGGAUAUACAUGAGGAUCACCCAUGUGCAAGUCGGAAGACCUGCGGUCAUGUAGAAGGAUGUAAUU [EX3 A.19] (Eterna round: R97, puzzle: Exclusion 3)	false (0)
GGUCGUAUGAGUAGUCCUCAUUGAAGAGAUUGGUAAGAUACAUGAGGAUCACCCAUGUUUGAACAAGCUUUUGCUCU [JR_Sv3TOV2_Sub008] (Eterna round: R96, puzzle: Sensor v3, turn-off variant 2)	true (1)
UGAGCUUGAGGAUAUACAAGGCGACCGUGAGGUCGAGGUUUACAUGAGGAUCACCCAUGUAGAAGGCAAGUUCU [Mat - Exclusion 2 - JL Mod - D8] (Eterna round: R97, puzzle: Exclusion 2)	false (0)
UUAAAUCAUGUAGGAUAUGCGUGGCGAAGCUAUGCAGAAGGACAUGAGGAUCACCCAUGUUCUAGCGUCUGCGUACAGAUGCUA [Mat - Exclusion NG 1 - Mod of JL - D76] (Eterna round: R96, puzzle: Exclusion NG 1)	true (1)

Check this sequence for apparent KD of MS2 coat protein at or above 30 nM: CAUAUGUUAGGAUAUGCACAGAUCUCCGAAAGGAGAUCUGUGCAGAAGGAACAUGAGGAUCACCCAUGUUGAUG [Mod of Brourd 17 - Jieux - Exclusion 4] (Eterna round: R97, puzzle: Exclusion 4)
true (1)
